# IC50 per entry
Tested on: 616215-338-R-J1-PDC complex spheroids, viability % test/control;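 note: spheroids exposed to agents for 7 days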
Experiment: Anticancer human tumor 616215-338-R-J1-PDC patient-derived colon adenocarcinoma cell line growth inhibition [CLK]
Settings: curve of first compound; second compound 0.0316 µM
Text: A high-throughput screen of multi-cell type tumor spheroids was designed to identify active combinations of […] and targeted small molecules. Complex spheroids include a stromal component modeled by human endothelial cells (HUVEC) and fibroblasts modeled by human mesenchymal stem cells (MSCs). […] Compounds. […] If the clinical Cmax for an agent had not been determined, the highest concentration tested was 10 microM. […]

[
  {
    "compound": "C=CC(=O)Nc1cc(Nc2nccc(-c3cn(C)c4ccccc34)n2)c(OC)cc1N(C)CCN(C)C + CN1CCN(c2cc(C(=O)Nc3cc4cc(-c5cnn(C)c5)ccc4cn3)ccn2)CC1",
    "IC50": "> 0.3 µM"
  },
  {
    "compound": "Nc1ccn(C2OC(CO)C(O)C2(F)F)c(=O)n1 (stereo not given) + CN1CCN(c2cc(C(=O)Nc3cc4cc(-c5cnn(C)c5)ccc4cn3)ccn2)CC1",
    "IC50": "< 0.0316 µM"
  },
  {
    "compound": "C=CC(=O)N1CCN(c2nc(=O)n(-c3c(C)ccnc3C(C)C)c3nc(-c4c(O)cccc4F)c(F)cc23)C(C)C1 (stereo not given) + CNC(=O)c1ccc(Nc2nc(OC3CCCC3)c3c(-c4ccc5nc(C)oc5c4)c[nH]c3n2)c(OC)c1",
    "IC50": "> 10 µM"
  },
  {
    "compound": "CC(CO)NC(=O)c1cc(-c2ccc(Cl)cc2)nn(-c2cnn(C)c2)c1=O (stereo not given) + CNC(=O)c1ccc(Nc2nc(OC3CCCC3)c3c(-c4ccc5nc(C)oc5c4)c[nH]c3n2)c(OC)c1",
    "IC50": "> 10 µM"
  },
  {
    "compound": "C#Cc1c(F)ccc2cc(O)cc(-c3ncc4c(N5CC6CCC(C5)N6)nc(OCC56CCCN5CC(F)C6)nc4c3F)c12 (stereo not given) + CNC(=O)c1ccc(Nc2nc(OC3CCCC3)c3c(-c4ccc5nc(C)oc5c4)c[nH]c3n2)c(OC)c1",
    "IC50": "> 10 µM"
  },
  {
    "compound": "COC1C=CCC(C)C(C)S(=O)(=O)NC(=O)c2ccc3c(c2)N(CC2CCC21)CC1(CCCc2cc(Cl)ccc21)CO3 (stereo not given) + CNC(=O)c1ccc(Nc2nc(OC3CCCC3)c3c(-c4ccc5nc(C)oc5c4)c[nH]c3n2)c(OC)c1",
    "IC50": "> 10 µM"
  },
  {
    "compound": "O=C(c1cc(Cc2n[nH]c(=O)c3ccccc23)ccc1F)N1CCN(C(=O)C2CC2)CC1 + CNC(=O)c1ccc(Nc2nc(OC3CCCC3)c3c(-c4ccc5nc(C)oc5c4)c[nH]c3n2)c(OC)c1",
    "IC50": "> 10 µM"
  },
  {
    "compound": "O=C(c1cc(Cc2n[nH]c(=O)c3ccccc23)ccc1F)N1CCN(C(=O)C2CC2)CC1 + CN1CCN(c2cc(C(=O)Nc3cc4cc(-c5cnn(C)c5)ccc4cn3)ccn2)CC1",
    "IC50": "> 10 µM"
  },
  {
    "compound": "COc1ccc([C@@H](O)c2cc(-c3ncnc4cc(N5CCOCC5)ccc34)c(F)cc2Cl)nn1 + CN1CCN(c2cc(C(=O)Nc3cc4cc(-c5cnn(C)c5)ccc4cn3)ccn2)CC1",
    "IC50": "> 10 µM"
  }
]

Okay, now this compound:
query: Which measured IC50 value corresponds to CC1COCCN1c1cc(C2(S(C)(=N)=O)CC2)nc(-c2ccnc3[nH]ccc23)n1 (stereo not given) + CN1CCN(c2cc(C(=O)Nc3cc4cc(-c5cnn(C)c5)ccc4cn3)ccn2)CC1 ?
result: > 10 µM
